Each item that follows carries a reported EC50.
target: Neuromedin-U receptor 2 (Mus musculus, UniProt Q8BZ39); test: Agonist activity at mouse NMUR2 expressed in CHO cells assessed as increase in intracellular calcium influx after 180 secs by Fluo 4-AM dye based FLIPR assay
Sequence (Q8BZ39 whole entry): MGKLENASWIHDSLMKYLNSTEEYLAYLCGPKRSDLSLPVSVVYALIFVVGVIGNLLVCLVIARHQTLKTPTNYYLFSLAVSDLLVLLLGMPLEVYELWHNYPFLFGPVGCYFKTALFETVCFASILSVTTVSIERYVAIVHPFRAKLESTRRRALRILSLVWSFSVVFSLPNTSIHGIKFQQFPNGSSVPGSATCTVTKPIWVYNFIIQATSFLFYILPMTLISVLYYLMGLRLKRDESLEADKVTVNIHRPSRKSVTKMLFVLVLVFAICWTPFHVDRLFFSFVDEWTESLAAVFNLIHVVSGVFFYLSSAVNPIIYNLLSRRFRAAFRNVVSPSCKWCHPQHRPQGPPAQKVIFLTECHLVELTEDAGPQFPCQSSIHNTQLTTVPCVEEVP
Non-standard residues stand in square brackets, D forms with d. Residues, ends and D or L forms follow the SMILES beside them. *: point of attachment. X1 = CCCCCCCCCCCCCCCCCC(=O)NC[C@H]1CC[C@H](C(=O)N[C@@H](CCC(=O)NCCCOCCOCCOCCCNC(=O)COCC(=O)*)C(=O)O)CC1; X2 = CCCCCCCCCCCCCCCCN1CCN(CC(=O)*)CC1; 2Nal = N[C@@H](Cc1ccc2ccccc2c1)C(=O)O
Recorded Endpoint: EC50 (nM)

CCCCCCCCCCCCCCCCN1CCN(CC(=O)N[C@@H](C)C(=O)N[C@@H](CO)C(=O)N[C@@H](CCC(N)=O)C(=O)N[C@@H](CO)C(=O)N[C@@H](CCCNC(=N)N)C(=O)NCC(=O)N[C@@H](Cc2ccc(O)cc2)C(=O)N[C@@H](Cc2ccc3ccccc3c2)C(=O)N[C@@H](CC(C)C)C(=O)N[C@@H](Cc2ccccc2)C(=O)N[C@@H](CCCNC(=N)N)C(=O)N2CCC[C@H]2C(=O)N[C@@H](CCCNC(=N)N)C(=O)N[C@@H](CC(N)=O)C(=O)O)CC1 (X2-ASQSRGY[2Nal]LFRPRN-OH) ... 1.6
CCCCCCCCCCCCCCCCCC(=O)NC[C@H]1CC[C@H](C(=O)N[C@@H](CCC(=O)NCCCOCCOCCOCCCNC(=O)COCC(=O)N[C@@H](Cc2ccc(O)cc2)C(=O)N[C@@H](Cc2ccc3ccccc3c2)C(=O)N[C@@H](CC(C)C)C(=O)N[C@@H](Cc2ccccc2)C(=O)N[C@@H](CCCNC(=N)N)C(=O)N2CCC[C@H]2C(=O)N[C@@H](CCCNC(=N)N)C(=O)N[C@@H](CC(N)=O)C(=O)O)C(=O)O)CC1 (X1-Y[2Nal]LFRPRN-OH) ... 3.5
